Target: GABA-A receptor; anion channel
Test: Inhibition of binding of tert-butyl bicyclophosphorothionate ([35 S]TBPS) at Gamma-aminobutyric acid A receptor from rat whole brain membranes
# log10(IC50) values compiled below
result_type: log10(IC50) (log10 of the value in nM)

                                    compound                   tested_target  obs_value
 0  C[C@]12CC[C@@H](O)C[C@@H]1CC[C@@H]1[C@@H]2CC[C@@]2(C)[C@H]1C[C@@H]1CO[C@@H]12  GABA-A receptor; anion channel       3.40
 1  CC(=O)[C@H]1CC[C@H]2[C@@H]3CC[C@H]4C[C@H](O)CC[C@]4(C)[C@H]3CC[C@]12C [BREXANOLONE]  GABA-A receptor; anion channel       2.19
 2  C[C@]12CC[C@@H](O)C[C@@H]1CC[C@@H]1[C@@H]2CC[C@]2(C)C(=O)CC[C@@H]12 [ANDROSTERONE]  GABA-A receptor; anion channel       3.14
 3  C[C@]12CC[C@@H](O)C[C@@H]1CC[C@@H]1[C@@H]2CC[C@@]2(C)[C@H]1CC[C@@]21CCO1  GABA-A receptor; anion channel       2.37
 4  C[C@]12CC[C@@H](O)C[C@@H]1CC[C@@H]1[C@@H]2CC[C@]2(C)[C@@H](C(=O)CO)CC[C@@H]12  GABA-A receptor; anion channel       2.28
 5  C[C@]12CC[C@@H](O)C[C@@H]1CC[C@@H]1[C@@H]2CC[C@@]2(C)[C@H]1C[C@@H]1O[C@@H]12  GABA-A receptor; anion channel       2.41
 6  CO[C@H]1CC[C@H]2[C@@H]3CC[C@H]4C[C@H](O)CC[C@]4(C)[C@H]3CC[C@]12C  GABA-A receptor; anion channel       2.32
 7  C[C@]12CC[C@@H](O)C[C@@H]1CC[C@@H]1[C@@H]2CC[C@@]2(C)[C@H]1CC[C@@]21CO1  GABA-A receptor; anion channel       1.74
 8  C[C@]12CC[C@@H](O)C[C@@H]1CC[C@@H]1[C@@H]2CC[C@@]2(C)[C@H](C#N)CC[C@@H]12  GABA-A receptor; anion channel       3.09
 9  C[C@]12CC[C@@H](O)C[C@@H]1CC[C@@H]1[C@@H]2CC[C@]2(C)[C@@H]3O[C@@H]3C[C@@H]12  GABA-A receptor; anion channel       3.73
10  C[C@]12CC[C@@H](O)C[C@@H]1CC[C@@H]1[C@@H]2CC[C@]2(C)[C@@H](O)CC[C@@H]12 [ANDROSTANDIOL]  GABA-A receptor; anion channel       3.27
11  CC(=O)[C@H]1CC[C@H]2[C@@H]3CC[C@@H]4C[C@H](O)CC[C@]4(C)[C@H]3CC[C@]12C [ELTANOLONE]  GABA-A receptor; anion channel       2.16
12  C[C@]12CC[C@@H](O)C[C@H]1CC[C@@H]1[C@@H]2CC[C@@]2(C)[C@H]1CC[C@@]21CO1  GABA-A receptor; anion channel       2.34
13  C[C@]12CC[C@@H](O)C[C@H]1CC[C@@H]1[C@@H]2CC[C@@]2(C)[C@H]1C[C@@H]1O[C@@H]12  GABA-A receptor; anion channel       2.20

These data points were gathered from ChEMBL document CHEMBL1133501.
